Biological target: T1, recombinant antigen of the extracellular region of CD47 (Sino Biological, Cat: 12283-H08H) (human, UniProt Q08722 19-139)
T1 construct: extracellular domain; also called recombinant CD47 extracellular region; CD47 recombinant protein
T1 sequence (Q08722 19-139 limits assumed): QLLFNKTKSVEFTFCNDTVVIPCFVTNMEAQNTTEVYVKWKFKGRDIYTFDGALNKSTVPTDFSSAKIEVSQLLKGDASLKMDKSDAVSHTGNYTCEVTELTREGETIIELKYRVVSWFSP
Experiment: Fortebio BLI, recombinant CD47 extracellular region
pKd: −log10 of the molar value.
Assign class by pKd: not lower than 8 means rule met; lower than 8 means rule not met.

Worked cases, answers included:
140Hm5/hz140L (Table 2) (antibody, V domains shown, also called hz140-Hm/hz140L) VH: QVQLVQSGAEVKKPGASVKVSCKASGYKFTNYVMHWVRQAPGQRLEWMGYINPGNDGIKYNEKFTGRVTITRDTSASTAYMELSSLRSEDTAVYYCAREGDFYANYGRLGFAYWGQGTLVTVSS VL: DIQMTQSPSSLSASVGDRVTITCRASQDITNYLNWYQQKPGKAPKLLIYYTSRLHSGVPSRFSGSGSGTDYTFTISSLQPEDIATYFCQQGDTFPRTFGGGTKVEIK; rule not met
140Hm3/hz140L (Table 2) (antibody, V domains shown, also called hz140-Hm/hz140L) VH: QVQLVQSGAEVKKPGASVKVSCKASGYKFTNYVMSWVRQAPGQRLEWMGYINPYNDGIKYNEKFTGRVTITRDTSASTAYMELSSLRSEDTAVYYCAREGDFYANYGRLGFAYWGQGTLVTVSS VL: DIQMTQSPSSLSASVGDRVTITCRASQDITNYLNWYQQKPGKAPKLLIYYTSRLHSGVPSRFSGSGSGTDYTFTISSLQPEDIATYFCQQGDTFPRTFGGGTKVEIK; rule met
140Hm8/hz140L (Table 2) (antibody, V domains shown, also called hz140-Hm/hz140L) VH: QVQLVQSGAEVKKPGASVKVSCKASGYKFTNYVMHWVRQAPGQRLEWMGYINPYNDAIKYNEKFTGRVTITRDTSASTAYMELSSLRSEDTAVYYCAREGDFYANYGRLGFAYWGQGTLVTVSS VL: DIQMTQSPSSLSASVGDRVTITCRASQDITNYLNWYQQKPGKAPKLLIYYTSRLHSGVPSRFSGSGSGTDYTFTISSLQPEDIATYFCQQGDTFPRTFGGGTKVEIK; rule met

Switching to the query record.
Incoming: Reported pKd at or above 8? 140Hm2/hz140L (Table 2) (antibody, V domains shown, also called hz140-Hm/hz140L) VH: QVQLVQSGAEVKKPGASVKVSCKASGYKFTNYAMHWVRQAPGQRLEWMGYINPYNDGIKYNEKFTGRVTITRDTSASTAYMELSSLRSEDTAVYYCAREGDFYANYGRLGFAYWGQGTLVTVSS VL: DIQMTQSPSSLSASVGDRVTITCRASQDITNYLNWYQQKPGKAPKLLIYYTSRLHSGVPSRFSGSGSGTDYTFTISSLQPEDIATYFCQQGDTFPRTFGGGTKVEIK
Outgoing: rule met
